Experiment: amyloid nucleation score (Sup35N fusion, yeast selection) (log enrichment); library NNK3; higher = more nucleation; inactive = no reads after selection;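 also: zero at mode of non-aggregating sequences after 7 days selection at 30°C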
MEASURED_METRIC: amyloid nucleation score

1) NFHQMW    inactive
2) YNDNSNCSARMGLI    inactive
3) GFVFQVYPQFVWVPPTTSRQ    1.2
4) LYIIFHNKYFLVEMGNYNCC    1.88
5) ARYETRMYKFKNTPGVAERR    inactive
6) VPGLHLSNPTAELDMQI    inactive

Entry "NTHNNIGGRYAKYGWLMRSK" , amyloid nucleation score reported as inactive

The value of amyloid nucleation score measured for the substance "TVLWFSC" turned out to be inactive

response.value for "DRFFTSFSVCSPNDDKGLL" (field: amyloid nucleation score) = inactive

get_value(item= "CVTGVSLPGNRISG" , readout=amyloid nucleation score) returns inactive

Field amyloid nucleation score (entry "RLATREDHAHLLDHACLVG" ) reads inactive

Origin of the recorded values: the supplement of paper PMC12042874
